B1: library; a variant is named by its letters at N, in order (parent)
chain: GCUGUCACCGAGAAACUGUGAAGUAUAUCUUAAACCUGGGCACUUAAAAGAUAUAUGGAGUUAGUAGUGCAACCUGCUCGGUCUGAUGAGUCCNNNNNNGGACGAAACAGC

Variants of: B1
protocolDescription: FACS-Seq fitted mean relative fluorescence mCherry/BFP without ligand (log10 relative fluorescence); HEK293T; ligand: cyclic di-GMP (c-di-GMP-II aptamer); higher = higher reporter protein expression
setupConditions: ligand present: no
Attribute: FACS-Seq fitted mean (log10)
Respond with the number and no other words.

Consider the worked cases shown below.
1) GUCGCU = -0.798
2) GCACAC = -0.421

Req: Using the record for UUUAAC , report its FACS-Seq fitted mean (log10).
Resp: 0.0586

Req: Here is the next variant: AACAUC
Resp: -0.233

Req: Here is the next variant: AAAGGA
Resp: -0.691

Req: Here is the next variant: ACUGCU
Resp: -0.0841

Req: Here is the next variant: AAUGAU
Resp: -0.104

Req: Here is the next variant: CGCCAA
Resp: -0.26

Req: Here is the next variant: CCAAUG
Resp: -0.646

Req: Here is the next variant: CGUAUA
Resp: -0.76

Req: Here is the next variant: GCAAUA
Resp: -0.419

Req: Here is the next variant: GUUCGU
Resp: -0.35

Req: Here is the next variant: CAGGAA
Resp: -0.629

Req: Here is the next variant: AUAGUU
Resp: -0.615

Req: Here is the next variant: UCUUAG
Resp: 0.0393

Req: Here is the next variant: CUGCGA
Resp: -0.33

Req: Here is the next variant: AACGCU
Resp: -0.0259

Req: Here is the next variant: ACUGAU
Resp: -0.368

Req: Here is the next variant: GCGUUU
Resp: -0.452

Req: Here is the next variant: GCCGGU
Resp: 0.00404

Req: Here is the next variant: ACCAAC
Resp: -0.0269

Req: Here is the next variant: UAGUGA
Resp: -0.51

Req: Here is the next variant: GUAUUU
Resp: -0.574

Req: Here is the next variant: CUUAAA
Resp: -0.598

Req: Here is the next variant: ACAAUG
Resp: -0.431

Req: Here is the next variant: GCAUGU
Resp: -0.424

Req: Here is the next variant: AUCUGG
Resp: -0.899

Req: Here is the next variant: CUUAAU
Resp: -0.0367

Req: Here is the next variant: CCUUCU
Resp: -0.619

Req: Here is the next variant: UCUGAU
Resp: -0.331
